experimental.system: Breast cancer resistance protein (BCRP) (Rattus norvegicus)
Construct: from tissue; host or cells: living rat (blood-brain barrier, choroid plexus)
Sequence (Q80W57 whole entry): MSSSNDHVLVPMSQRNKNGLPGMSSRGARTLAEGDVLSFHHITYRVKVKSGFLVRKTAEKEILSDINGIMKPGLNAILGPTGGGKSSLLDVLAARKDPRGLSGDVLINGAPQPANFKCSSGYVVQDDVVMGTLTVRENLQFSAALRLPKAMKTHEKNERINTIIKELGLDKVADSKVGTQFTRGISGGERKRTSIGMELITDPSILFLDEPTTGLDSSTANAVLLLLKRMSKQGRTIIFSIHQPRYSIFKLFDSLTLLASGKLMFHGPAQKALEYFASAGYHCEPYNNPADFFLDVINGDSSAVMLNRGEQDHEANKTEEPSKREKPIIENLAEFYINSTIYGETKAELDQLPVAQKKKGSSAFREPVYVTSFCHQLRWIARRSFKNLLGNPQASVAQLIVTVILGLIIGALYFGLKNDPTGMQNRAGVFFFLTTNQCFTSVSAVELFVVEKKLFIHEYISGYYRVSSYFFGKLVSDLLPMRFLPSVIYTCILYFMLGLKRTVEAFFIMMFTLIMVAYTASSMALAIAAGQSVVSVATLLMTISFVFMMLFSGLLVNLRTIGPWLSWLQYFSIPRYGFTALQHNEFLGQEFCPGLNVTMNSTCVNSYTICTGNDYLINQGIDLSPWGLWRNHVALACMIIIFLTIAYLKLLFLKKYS
test.method.notes: In vivo microdialysis pharmacokinetics of LVFX with BCRP inhibitor Ko143
study.conditions: brain ECF (hippocampal microdialysate, unbound), intravenous, with Ko143 15 mg/kg i.p., 30 min before LVFX, brain ECF, Ko143 group, Ko143 15 mg/kg i.p. + LVFX 50 mg/kg, mean ± SD, N=5
measurement.name: AUC(0-inf) (ng·h/mL)
Field format: number, assumed ng·h/mL, no unit text.

Exercise: Given the entry C[C@H]1COc2c(N3CCN(C)CC3)c(F)cc3c(=O)c(C(=O)O)cn1c23 [LVFX, Levofloxacin] , report its measured AUC(0-inf).
Solution: 4650
